# Tested on: MM.1S cells
# testName: Inhibitory effect on the proliferation of MM.1S, MTS cell viability test
# Type: cell-based
# experimentalSetup: Homo sapiens, MM1.S, 168 h, multiple myeloma MM.1S cells, 7 days incubation, read-out: Tumor cell inhibitory activity
Reported IC50 values are given for each entry in this list.

Look over these answered cases.
O=C1CCC(N2Cc3c(CCCCN4CCC(c5noc6cc(F)ccc56)CC4)cccc3C2=O)C(=O)N1 (stereo not drawn)
1000 to 20000 nM
CC(=O)N[C@@H](CCCc1cccc2c1CN(C1CCC(=O)NC1=O)C2=O)C(=O)Nc1ccc(C)c(Cl)c1 (stereo partly drawn)
< 100 nM
COc1ccc(C2(C#N)CCN(CCCCc3cccc4c3CN(C3CCC(=O)NC3=O)C4=O)CC2)c(OC)c1 (stereo not drawn)
1000 to 20000 nM
Cc1cccc(N2CCN(CCCCc3cccc4c3CN(C3CCC(=O)NC3=O)C4=O)CC2)c1 (stereo not drawn)
< 100 nM
Cc1ccc2c(c1)C1(CCN(CCCOc3cccc4c3CN(C3CCC(=O)NC3=O)C4=O)CC1)OC2 (stereo not drawn)
< 100 nM
O=C1CCC(N2Cc3c(CCCCCN4CCCc5ccc(Cl)cc54)cccc3C2=O)C(=O)N1 (stereo not drawn)
1000 to 20000 nM

-- ask Can you look up the measured IC50 of O=C1CCC(N2Cc3c(OCCCC(=O)N4CCCc5ccccc54)cccc3C2=O)C(=O)N1 (stereo not drawn) for me?
-- reply 100 to 1000 nM

-- ask Can you look up the measured IC50 of O=C1CCC(N2Cc3c(CCCCCN4CCC5(CC4)OCc4ccc(F)cc45)cccc3C2=O)C(=O)N1 (stereo not drawn) for me?
-- reply < 100 nM

-- ask Can you look up the measured IC50 of N#CC1(c2c(Cl)cccc2Cl)CCN(CCCCc2cccc3c2CN(C2CCC(=O)NC2=O)C3=O)CC1 (stereo not drawn) for me?
-- reply 100 to 1000 nM

-- ask Can you look up the measured IC50 of `C[C@]1(N2C(=O)c3cccc(OCCCN4CCC(C#N)(c5ccccc5OC(F)(F)F)CC4)c3C2=O)CCC(=O)NC1=O` for me?
-- reply 1000 to 20000 nM

-- ask Can you look up the measured IC50 of N#CC1(c2ccc(Cl)cc2)CCN(CCCCc2cccc3c2CN(C2CCC(=O)NC2=O)C3=O)CC1 (stereo not drawn) for me?
-- reply < 100 nM

-- ask Can you look up the measured IC50 of O=C1CCC(N2Cc3c(OCCCCC(=O)N4CCN(c5cccc(Cl)c5Cl)CC4)cccc3C2=O)C(=O)N1 (stereo not drawn) for me?
-- reply < 100 nM

----------
# Tested on: MM.1S cells
# testName: Inhibitory effect on the proliferation of MM.1S, MTS cell viability test
# Assay type: cell-based
# experimentalSetup: Homo sapiens, MM1.S, 168 h, multiple myeloma MM.1S cells, 7 days incubation, read-out: Tumor cell inhibitory activity
pIC50: −log10 of the molar value.
measurementLabel: pIC50

Look over these answered cases.
N[C@@H](CCCc1cccc2c1CN(C1CCC(=O)NC1=O)C2=O)C(=O)NC1C2CC3CC(C2)CC1C3 (stereo partly shown) [Example 176]
< 4.70
O=C1CCC(N2Cc3c(OCCCCN4CCC(c5noc6cc(F)ccc56)CC4)cccc3C2=O)C(=O)N1 (stereo not shown) [Example 241]
4.70 to 6.00
CC(=O)N[C@@H](CCCc1cccc2c1CN(C1CCC(=O)NC1=O)C2=O)C(=O)N[C@@H](C)c1ccccc1 (stereo partly shown) [Example 171]
4.70 to 6.00
C[C@]1(N2Cc3c(OCCCN4CCC(C#N)(c5ccccc5OC(F)(F)F)CC4)cccc3C2=O)CCC(=O)NC1=O [Example 56]
4.70 to 6.00
N#CC1(c2cccc(Cl)c2)CCN(CCCCCCc2cccc3c2CN(C2CCC(=O)NC2=O)C3=O)CC1 (stereo not shown) [Example 100]
> 7.00
O=C1CCC(N2Cc3c(CCCCCN4CCC5(CC4)OCc4ccccc45)cccc3C2=O)C(=O)N1 (stereo not shown) [Example 123]
> 7.00

-- ask Can you look up the measured pIC50 of O=C1CCC(N2Cc3c(OCCCN4CCC5(CC4)OCc4ccc(Cl)cc45)cccc3C2=O)C(=O)N1 (stereo not shown) [Example 138] for me?
-- reply > 7.00

----------
Reported IC50 values are given for each entry in this list.
# Test system: MM.1S cells
# testName: Inhibitory effect on the proliferation of MM.1S, MTS cell viability test
# Assay type: cell-based
# experimentalSetup: Homo sapiens, MM1.S, 168 h, multiple myeloma MM.1S cells, 7 days incubation, read-out: Tumor cell inhibitory activity
# Procedure: Method of tumor cell proliferation inhibition test: the inventors tested all the example compounds on hematologic tumor cells, multiple myeloma MMTs cell line and acute leukemia cell MV-4-11 cell line of some examples. The activity test method and results are as follows. 1. […] MM.1S cells were cultured and collected with 1640 plus 10% fetal bovine serum. […] Absorbance value at 490 nm was read with a microtiter plate, and 690 nm absorbance value was used as the background value. […]

Look over these answered cases.
O=C1CCC(N2Cc3c(CCCCCN4CCN(c5cccc(C(F)(F)F)c5)CC4)cccc3C2=O)C(=O)N1 (stereo not drawn)
< 0.1 µM
Cc1ccc(NC(=O)CCCCOc2cccc3c2CN(C2CCC(=O)NC2=O)C3=O)cc1Cl (stereo not drawn)
< 0.1 µM

-- ask Can you look up the measured IC50 of N[C@@H](CCCc1cccc2c1CN(C1CCC(=O)NC1=O)C2=O)c1nc2ccccc2[nH]1 (stereo partly drawn) for me?
-- reply > 20 µM

-- ask Can you look up the measured IC50 of O=C1CCC(N2Cc3c(OCCCCOc4ccnc5ccccc45)cc(F)cc3C2=O)C(=O)N1 (stereo not drawn) for me?
-- reply < 0.1 µM

-- ask Can you look up the measured IC50 of O=C1CCC(N2Cc3c(OCCCCOc4cc(C5CC5)nc5ccccc45)cccc3C2=O)C(=O)N1 (stereo not drawn) for me?
-- reply < 0.1 µM

-- ask Can you look up the measured IC50 of CC(=O)N[C@@H](CCCc1cccc2c1CN(C1CCC(=O)NC1=O)C2=O)C(=O)N[C@H]1CCCc2ccccc21 (stereo partly drawn) for me?
-- reply < 0.1 µM

-- ask Can you look up the measured IC50 of CC(=O)N[C@@H](CCCc1cccc2c1CN(C1CCC(=O)NC1=O)C2=O)C(=O)N(C)Cc1ccccc1 (stereo partly drawn) for me?
-- reply 1 to 20 µM

-- ask Can you look up the measured IC50 of Cc1ccc(NC(=O)[C@H](CCCc2cccc3c2CN(C2CCC(=O)NC2=O)C3=O)NC(=O)CCCCCO)cc1Cl (stereo partly drawn) for me?
-- reply < 0.1 µM

-- ask Can you look up the measured IC50 of O=C1CCC(N2Cc3c(CCCCCN4CCc5ccccc5C4)cccc3C2=O)C(=O)N1 (stereo not drawn) for me?
-- reply 0.1 to 1 µM

-- ask Can you look up the measured IC50 of O=C1CCC(N2Cc3c(OCCCCN4CCN(c5noc6ccccc56)CC4)cccc3C2=O)C(=O)N1 (stereo not drawn) for me?
-- reply 1 to 20 µM

-- ask Can you look up the measured IC50 of N#Cc1ccc(N2CCN(CCCCc3cccc4c3CN(C3CCC(=O)NC3=O)C4=O)CC2)cc1 (stereo not drawn) for me?
-- reply < 0.1 µM

----------
# Tested on: MM.1S cells
# testName: Inhibitory effect on the proliferation of MM.1S, MTS cell viability test
# Type: cell-based
# experimentalSetup: Homo sapiens, MM1.S, 168 h, multiple myeloma MM.1S cells, 7 days incubation, read-out: Tumor cell inhibitory activity
pIC50: −log10 of the molar value.
measurementLabel: pIC50

Look over these answered cases.
N#CC1(c2cccc(F)c2)CCN(CCCOc2cccc3c2CN(C2CCC(=O)NC2=O)C3=O)CC1 (stereo not shown)
6.00 to 7.00
O=C1CCC(N2Cc3c(CCC[C@H](NC(=O)C4CCC4)C(=O)NCc4ccccc4)cccc3C2=O)C(=O)N1 (stereo partly shown)
> 7.00
N#CC1(c2ccc(OC(F)(F)F)cc2Cl)CCN(CCCCc2cccc3c2CN(C2CCC(=O)NC2=O)C3=O)CC1 (stereo not shown)
6.00 to 7.00

-- ask Can you look up the measured pIC50 of O=C1CCC(N2Cc3c(CCCCN4CCC5(CC4)OCc4ccccc45)cccc3C2=O)C(=O)N1 (stereo not shown) for me?
-- reply 6.00 to 7.00

----------
# Test system: MM.1S cells
# testName: Inhibitory effect on the proliferation of MM.1S, MTS cell viability test
# Format: cell-based
# experimentalSetup: Homo sapiens, MM1.S, 168 h, multiple myeloma MM.1S cells, 7 days incubation, read-out: Tumor cell inhibitory activity
Reported IC50 values are given for each entry in this list.

Look over these answered cases.
CC1CCc2cc(F)ccc2N1CCCCCc1cccc2c1CN(C1CCC(=O)NC1=O)C2=O (stereo not drawn)
100 to 1000 nM
N#CC1(c2ccc(OC(F)(F)F)cc2)CCN(CCCOc2cccc3c2CN(C2CCC(=O)NC2=O)C3=O)CC1 (stereo not drawn)
< 100 nM
O=C1CCC(N2Cc3c(OCc4ccc(CN5CCOCC5)cc4)cccc3C2=O)C(=O)N1 (stereo not drawn) [CC-220, reference compound]
< 100 nM
O=C1CCC(N2Cc3c(OCCCCCCN4CCC5(CC4)OCc4ccc(Cl)cc45)cccc3C2=O)C(=O)N1 (stereo not drawn)
< 100 nM
COc1cccc(C2(C#N)CCN(CCCCCc3cccc4c3CN(C3CCC(=O)NC3=O)C4=O)CC2)c1OC (stereo not drawn)
100 to 1000 nM

-- ask Requested read-out IC50, target or system MM.1S cells, entry O=C1CCC(N2Cc3c(OCCCOc4ccnc5ccccc45)cccc3C2=O)C(=O)N1 (stereo not drawn)
-- reply 1000 to 20000 nM

-- ask Requested read-out IC50, target or system MM.1S cells, entry O=C1CCC(N2Cc3c(CCCCCN4CCC5(CC4)C(=O)NCN5c4ccccc4)cccc3C2=O)C(=O)N1 (stereo not drawn)
-- reply 100 to 1000 nM

Source listed as patent US12459921B2.
